- Protocol Details: TEAD-YAP interaction inhibition, primary screen, TEAD-YAP interaction inhibitor project, luminescence, HEK-TIYL cells (AID 1259422);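 further: 0% = median of test compound wells and 100% = reference inhibitor wells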
- Experimental Context: TEAD-Gal4/YAP UAS-luciferase luminescence, at 9.12 µM
Out of some 640,000 compounds screened, about 9,300 (1.5%) were called active. No stated cut-off is given here; in the data, active means inhibition above about 32%; inactive means the rest. Many of the other results were omitted from the sample, so actives are more common in it than they were.
Log the outcome using a class from label 1 = active, label 0 = inactive

Answered examples (5):
Ask: State the result this test recorded for Nc1cccc(-c2nc(NCCO)c3ncn(-c4ccccc4)c3n2)c1 .
Reply: label 0

Ask: Could you please tell me the result logged for Cn1c(Nc2nc(NCCN3CCOCC3)c3ncn(-c4ccccc4)c3n2)nc2ccccc21 in this assay?
Reply: label 0

Ask: What call does the record list for CCC(=O)N(Cc1ccco1)Cc1cc2cc3c(cc2[nH]c1=O)OCCO3 ?
Reply: label 0

Ask: So what was the verdict on COc1ccc(-c2nc(NCCN3CCOCC3)c3ncn(-c4ccccc4)c3n2)cn1 in this test?
Reply: label 1

Ask: Entry Cc1cc(C)nc(SCC(=O)Nc2cc(C(=O)O)cc([N+](=O)[O-])c2)n1 : call = ?
Reply: label 0

Now turn to the next compound.
Ask: // return assay outcome for COc1ccc(-c2nc(NCCO)c3ncn(-c4ccsc4)c3n2)cn1
Reply: label 1

###

- Protocol Details: TEAD-YAP interaction inhibition, primary screen, TEAD-YAP interaction inhibitor project, luminescence, HEK-TIYL cells (AID 1259422);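 further: 0% = median of test compound wells and 100% = reference inhibitor wells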
- Experimental Context: TEAD-Gal4/YAP UAS-luciferase luminescence, at 9.12 µM, hits give high values
The campaign covered roughly 640,000 compounds. About 9,300 (1.5%) were called active. The entries come from a sample that favours actives as a whole.
Readout Label: inhibition (%)
Please respond with the number in % and leave the unit unwritten.

Ask: Given the molecule COc1ccc(Nc2cc(=O)oc3ccccc23)cc1 , what is its reported inhibition?
Reply: 36.2

Ask: For the molecule shown here, O=C(Nc1ccc(F)c(F)c1)c1ccc(N2CC3CC(C2)c2cccc(=O)n2C3)c(NC(=O)c2cccc(C(F)(F)F)c2)c1 (centres undefined) , give the reported inhibition.
Reply: -14.9

Ask: What does the data say about its inhibition? Entry: COc1ccc(NC(=O)Cc2c[nH]c3ccccc23)cc1Cl
Reply: 4.42

Then there is this molecule:
Ask: Would you mind telling me what inhibition value was observed for CCCn1c(SCC(=O)N2CCc3ccccc32)nnc1-c1ccncc1 ?
Reply: -1.7

###

Reported inhibition values are given for each entry in this list.
- Protocol Details: TEAD-YAP interaction inhibition, primary screen, TEAD-YAP interaction inhibitor project, luminescence, HEK-TIYL cells (AID 1259422);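 further: 0% = median of test compound wells and 100% = reference inhibitor wells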
- Experimental Context: TEAD-Gal4/YAP UAS-luciferase luminescence, at 9.12 µM, hits give high values
Out of some 640,000 compounds screened, about 9,300 (1.5%) were called active. The full list was thinned out, with actives kept by preference.
Supply the numeric figure in %, leaving out any unit text.

Ask: Can you look up the measured inhibition of Clc1ccccc1OCc1nn2c(Cc3ccccc3)nnc2s1 for me?
Reply: -7.7

Ask: Give the measured inhibition of O=C1NC(=S)S/C1=C/c1ccc(-c2ccc3c(c2)COC3=O)o1 .
Reply: -7.22

Ask: Suppose we examine the compound Cc1ccc(Cc2cnc(NC(=O)CCl)s2)cc1 ; what inhibition value has been reported?
Reply: 24.8

Ask: Requested field: inhibition. Item: CN(C)C(=O)c1cc(-c2cn[nH]c2)ccc1NC(=O)OCc1ccccc1
Reply: -2.11

Ask: Value lookup for inhibition; key = CCCn1nnnc1NC(=O)c1ccc(-c2cccc(Cl)c2)o1
Reply: -16.9

Continuing:
Ask: Give its inhibition value. Item: FC(F)Oc1ccc(-c2csc(=Nc3cccnc3)n2C2CC2)cc1
Reply: 50.1

Ask: # lookup: inhibition of CC(=O)N1CCc2c(sc(NC(=O)CCSc3ccccc3)c2C(N)=O)C1
Reply: 3.99

Ask: Which inhibition value is on record for CCOC(=O)N1CCc2c(sc(NC(=O)/C=C/c3cccc([N+](=O)[O-])c3)c2C#N)C1 ?
Reply: 33.5

Ask: For the compound shown here, Cc1ccc(OCc2nn3c(Cn4cnc5ccccc54)nnc3s2)cc1 , give the reported inhibition.
Reply: 32.3

Ask: Fill in: inhibition of Cc1ccc(S(=O)(=O)N(C(=O)NC(=O)Nc2ccccc2Cl)c2ccc(Cl)cc2)cc1 is ___
Reply: -3.29

Ask: Consider the compound CC(=O)c1ccc(OCC(=O)Nc2c(F)c(F)cc(F)c2F)cc1 and give its measured inhibition.
Reply: -0.14

Ask: Item CC(=O)Nc1ccc(N2C(=O)c3ccc4c5c(ccc(c35)C2=O)C(=O)N(c2ccc(NC(C)=O)cc2)C4=O)cc1 has what recorded inhibition?
Reply: 5.3

Ask: I have this compound here, Cc1cc(C)nc(/N=C(/NC(=O)c2ccc(F)cc2)Nc2ccc(F)cc2F)n1 , and I need its recorded inhibition.
Reply: 2.84

Ask: // query inhibition value for entry Cn1c(/N=C/c2nc(-c3cccc4ccccc34)oc2O)nc2ccccc21
Reply: -6.43

Ask: Reported inhibition, compound Cc1csc(=Nc2ccccc2)n1C1CCCC1 : ____
Reply: -5.23
